Values were extracted from paper PMC4498814.

Molecular target: Gce (germ cell-expressed) (Drosophila melanogaster, UniProt Q9VXW7)
Sequence (Q9VXW7 269-959): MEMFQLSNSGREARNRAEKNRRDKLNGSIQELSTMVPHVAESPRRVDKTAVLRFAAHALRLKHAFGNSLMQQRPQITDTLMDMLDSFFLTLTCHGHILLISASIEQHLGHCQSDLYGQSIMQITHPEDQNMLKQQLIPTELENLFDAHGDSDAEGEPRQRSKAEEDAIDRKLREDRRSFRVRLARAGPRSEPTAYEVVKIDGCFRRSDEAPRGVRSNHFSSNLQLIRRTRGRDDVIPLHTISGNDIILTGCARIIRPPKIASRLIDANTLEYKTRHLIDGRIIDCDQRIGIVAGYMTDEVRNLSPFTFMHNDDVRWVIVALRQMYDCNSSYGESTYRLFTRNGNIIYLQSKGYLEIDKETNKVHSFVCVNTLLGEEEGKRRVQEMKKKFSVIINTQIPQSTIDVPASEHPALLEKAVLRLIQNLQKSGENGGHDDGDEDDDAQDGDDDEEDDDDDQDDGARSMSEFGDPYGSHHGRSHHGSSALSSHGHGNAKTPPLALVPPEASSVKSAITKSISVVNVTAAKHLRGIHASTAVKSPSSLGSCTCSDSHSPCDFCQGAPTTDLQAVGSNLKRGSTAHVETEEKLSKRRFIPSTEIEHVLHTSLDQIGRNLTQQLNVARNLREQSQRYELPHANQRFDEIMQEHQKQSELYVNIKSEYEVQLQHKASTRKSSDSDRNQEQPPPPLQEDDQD

- Compound: "COC(=O)/C=C(\\C)CC/C=C(\\C)CCC1OC1(C)C (racemic)"
  Kd, nM: 19.3

====

compounds and their reported Ki
target: Gce (germ cell-expressed) (Drosophila melanogaster, UniProt Q9VXW7); construct: amino acids 1–689, translated in vitro; test: competition radioligand binding against [3H]JH III, dextran-coated charcoal assay

- Compound: "COC(C)(C)CCC[C@H](C)C/C=C/C(C)=C/C(=O)OC(C)C (racemic) [methoprene]"
  Ki, nM: 45.8
- Compound: "CC(COc1ccc(Oc2ccccc2)cc1)Oc1ccccn1 (centres unmarked) [pyriproxyfen]"
  Ki, nM: 5.7
